# target-desc: purified vWF (Homo sapiens, UniProt P04275)
# Sequence (P04275 764-2813 limits assumed): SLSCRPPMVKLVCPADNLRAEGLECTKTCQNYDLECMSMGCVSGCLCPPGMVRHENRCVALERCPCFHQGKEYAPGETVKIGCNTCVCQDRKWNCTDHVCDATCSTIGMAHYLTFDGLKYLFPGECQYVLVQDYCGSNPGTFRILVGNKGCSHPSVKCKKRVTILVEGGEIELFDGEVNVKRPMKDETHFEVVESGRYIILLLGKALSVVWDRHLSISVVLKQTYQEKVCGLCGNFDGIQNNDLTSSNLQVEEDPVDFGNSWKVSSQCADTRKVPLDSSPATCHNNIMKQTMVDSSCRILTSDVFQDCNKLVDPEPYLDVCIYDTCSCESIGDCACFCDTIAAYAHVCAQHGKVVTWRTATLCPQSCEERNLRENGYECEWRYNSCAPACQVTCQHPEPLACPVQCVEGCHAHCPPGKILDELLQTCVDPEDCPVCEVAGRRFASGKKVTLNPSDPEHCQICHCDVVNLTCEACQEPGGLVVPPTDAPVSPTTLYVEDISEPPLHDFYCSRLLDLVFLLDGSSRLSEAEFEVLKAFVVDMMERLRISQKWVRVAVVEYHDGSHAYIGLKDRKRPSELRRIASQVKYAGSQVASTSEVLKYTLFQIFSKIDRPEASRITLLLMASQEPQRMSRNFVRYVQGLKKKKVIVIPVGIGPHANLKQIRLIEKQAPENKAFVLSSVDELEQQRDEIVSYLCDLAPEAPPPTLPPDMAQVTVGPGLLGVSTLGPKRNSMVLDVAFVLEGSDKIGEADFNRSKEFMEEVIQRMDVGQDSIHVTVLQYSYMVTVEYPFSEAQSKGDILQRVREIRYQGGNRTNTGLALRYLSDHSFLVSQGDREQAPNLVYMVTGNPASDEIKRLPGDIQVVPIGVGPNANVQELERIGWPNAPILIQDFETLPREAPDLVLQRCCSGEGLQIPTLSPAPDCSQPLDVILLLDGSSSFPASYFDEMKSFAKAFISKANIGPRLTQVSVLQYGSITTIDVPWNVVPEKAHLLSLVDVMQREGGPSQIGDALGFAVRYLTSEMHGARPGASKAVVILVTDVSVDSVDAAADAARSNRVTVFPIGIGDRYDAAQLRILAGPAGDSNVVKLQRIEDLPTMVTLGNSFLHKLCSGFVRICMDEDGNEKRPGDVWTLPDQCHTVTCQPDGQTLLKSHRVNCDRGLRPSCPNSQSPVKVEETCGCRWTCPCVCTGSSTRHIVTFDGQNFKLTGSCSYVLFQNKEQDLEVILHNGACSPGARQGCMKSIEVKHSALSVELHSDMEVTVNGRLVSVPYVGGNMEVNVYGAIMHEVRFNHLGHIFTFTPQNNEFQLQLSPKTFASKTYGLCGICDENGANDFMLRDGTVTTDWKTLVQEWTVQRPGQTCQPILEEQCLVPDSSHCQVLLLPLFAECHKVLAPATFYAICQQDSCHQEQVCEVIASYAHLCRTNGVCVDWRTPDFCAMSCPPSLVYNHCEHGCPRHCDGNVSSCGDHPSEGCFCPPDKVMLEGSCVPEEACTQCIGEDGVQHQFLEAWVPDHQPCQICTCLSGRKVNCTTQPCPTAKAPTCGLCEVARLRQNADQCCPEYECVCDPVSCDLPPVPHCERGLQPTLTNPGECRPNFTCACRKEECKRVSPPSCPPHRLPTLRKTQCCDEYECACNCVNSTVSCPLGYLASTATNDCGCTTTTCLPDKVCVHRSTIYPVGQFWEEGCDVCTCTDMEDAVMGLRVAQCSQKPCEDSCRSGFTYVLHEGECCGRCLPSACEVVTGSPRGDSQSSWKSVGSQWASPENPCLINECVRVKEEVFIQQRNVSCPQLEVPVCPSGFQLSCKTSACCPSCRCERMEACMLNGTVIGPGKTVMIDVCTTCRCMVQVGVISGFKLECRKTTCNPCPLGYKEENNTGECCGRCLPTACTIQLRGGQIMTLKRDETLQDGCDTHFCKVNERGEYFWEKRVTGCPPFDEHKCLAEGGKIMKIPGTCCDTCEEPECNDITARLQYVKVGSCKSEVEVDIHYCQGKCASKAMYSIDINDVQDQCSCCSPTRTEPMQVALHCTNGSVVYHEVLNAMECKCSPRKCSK
# protocol-text: Effect of purified reductants on affinity of purified vWF for collagen
# Format: biochemical
# condition-label: GSH alone; 24 hours at 37° C.; read-out: half-maximal effect on vWF collagen affinity
# Protocol: Confluent HUVEC's were washed with M199 without FCS and incubated in M199 for up to 8.5 hours. The HUVECS were stimulated to release vWF by adding […] human α-thrombin after 0.5 hours. […] Collagen binding affinity was assessed by incubating the vWF in plastic wells coated with type I/III collagen for 1 hour and measuring the bound vWF using peroxidase conjugated anti-vWF antibodies (Favoloro et al., 1991). […]
pEC50: −log10 of the molar value.
measured-parameter: pEC50

### Prompt Need pEC50, item N[C@@H](CCC(=O)N[C@@H](CS)C(=O)NCC(=O)O)C(=O)O
### Response ~4.70
